Target Entity: humanDOR (Homo sapiens, UniProt P41143)
Sequence (P41143 whole entry): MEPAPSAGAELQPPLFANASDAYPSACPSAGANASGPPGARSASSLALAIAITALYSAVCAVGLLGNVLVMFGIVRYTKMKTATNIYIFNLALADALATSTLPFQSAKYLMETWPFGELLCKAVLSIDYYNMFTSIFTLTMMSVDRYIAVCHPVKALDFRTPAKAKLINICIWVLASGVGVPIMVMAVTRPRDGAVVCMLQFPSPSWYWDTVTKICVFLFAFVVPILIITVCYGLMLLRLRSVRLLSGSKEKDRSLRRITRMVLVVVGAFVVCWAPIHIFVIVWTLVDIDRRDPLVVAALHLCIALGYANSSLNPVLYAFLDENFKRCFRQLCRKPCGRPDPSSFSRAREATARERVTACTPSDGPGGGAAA
Experiment: Receptor binding with [3H]diprenorphine at human DOR
Condition Set: ± SD (two experiments) or SEM; (n) experiments; read-out: humanDOR [3H]dyprenorphine Ki
Flag rule - Ki less than 900 nM flags 1 (yes); the remaining entries get 0 (no).

INSERT INTO results (molecule, target_entity, qualitative_label) VALUES
  ('CC(Cc1ccsc1)NC(=O)NCC(Cc1ccc(O)cc1)N(C)C (single isomer, unassigned) [BD 122DS]', 'humanDOR (Homo sapiens, UniProt P41143)', '0 (no)'),
  ('CN(C)[C@H](CNC(=O)NC(C)(C)Cc1ccsc1)Cc1cccc(O)c1 [DD 46L]', 'humanDOR (Homo sapiens, UniProt P41143)', '1 (yes)'),
  ('CN(C)[C@H](CNC(=O)NC1Cc2ccccc2C1)Cc1ccc(O)cc1 [DD 57L]', 'humanDOR (Homo sapiens, UniProt P41143)', '1 (yes)'),
  ('CC(Cc1ccsc1)NC(=O)NCC(Cc1ccc(O)cc1)N(C)C (single isomer, unassigned) [BD 122DR]', 'humanDOR (Homo sapiens, UniProt P41143)', '0 (no)'),
  ('CC(Cc1ccsc1)NC(=O)NCC(Cc1ccccc1)N(C)C (single isomer, unassigned) [BD 127DS]', 'humanDOR (Homo sapiens, UniProt P41143)', '0 (no)'),
  ('C[C@H](NC(=O)NC[C@H](Cc1ccc(O)cc1)N(C)C)c1cccc2ccccc12 [DD 50LS]', 'humanDOR (Homo sapiens, UniProt P41143)', '1 (yes)'),
  ('C[C@H](NC(=O)NC[C@H](Cc1ccc(O)cc1)N(C)C)c1ccccc1 [DD 53LS]', 'humanDOR (Homo sapiens, UniProt P41143)', '1 (yes)'),
  ('C[C@@H](Cc1ccccc1)NC(=O)NC[C@H](Cc1ccc(O)cc1)N(C)C [DD 61L-B]', 'humanDOR (Homo sapiens, UniProt P41143)', '1 (yes)'),
  ('C[C@@H](Cc1ccsc1)NC(=O)NC[C@H](Cc1cccc(O)c1)N(C)C [DD 47LS]', 'humanDOR (Homo sapiens, UniProt P41143)', '1 (yes)'),
  ('C[C@H](Cc1ccccc1)NC(=O)NC[C@H](Cc1ccc(O)cc1)N(C)C [DD 61L-A]', 'humanDOR (Homo sapiens, UniProt P41143)', '1 (yes)');
